- Tested on: MALME-3M melanoma
- protocol_details: NCI tumour cell line growth inhibition, 48 h
measurement_kind: TGI

# compound, measurement_kind, experimental_result
records = [
    ("CN/C=C(/c1ccc(OC)cc1)C(O)c1ccc(OC)c(OC)c1 (stereo not drawn)", "TGI", "> 100 µM"),
    ("Fc1ccc2c(c1)SC1Oc3ccccc3-c3c1c-2nn3-c1ccccc1 (stereo not drawn)", "TGI", "> 100 µM"),
    ("O=c1c2cc(Br)ccc2nc(-c2ccccc2)n1NCC1(O)OCC(O)C(O)C1O (stereo not drawn)", "TGI", "> 100 µM"),
]

====

- Tested on: KM12 colon
- protocol_details: NCI tumour cell line growth inhibition, 48 h
Each item that follows carries a reported TGI.

# molecule_smiles, measurement_units, value_operator, TGI
records = [
    ("CNS(=O)(=O)c1ccccc1C(=N)c1ccccc1", "µM", ">", 100),
    ("COc1ccc(S(=O)(=O)NC2=NCCN2C(=S)SN2CCn3c2nsc3=S)cc1OC", "µM", "=", 52),
    ("COc1cc(-c2nc3ccccc3[nH]2)ccc1OCC(=O)N=Nc1c(O)[nH]c2ccc(Cl)cc12", "µM", "=", 3.24),
]

====

- System: PC-3 prostate
- protocol_details: NCI tumour cell line growth inhibition, 48 h
measurement_kind: TGI

# molecule, experimental_result
measured = [
    ("COc1ccc2c(c1)C(=O)c1c-2c(OCCN(C)C)nc2cc(OC)ccc12", "3.69 µM"),
    ("CN(C)CCn1c(=O)oc2cc(C(=O)CN3CCOCC3)ccc21", "> 100 µM"),
    ("C=C1CC23CCC4C(C)(C(=O)O)CCCC4(C)C2CCC1C3 (stereo unspecified)", "> 100 µM"),
    ("Cc1cc(C(=O)N[C@@H](CCC(=O)O)C(=O)O)sc1CC[C@@H]1CNc2nc(N)[nH]c(=O)c2C1", "> 100 µM"),
    ("CN(C)CCN1C(=O)c2cccc3c(N)ccc(c23)C1=O", "> 25 µM"),
    ("CC1=CSC(O)(c2ccc(Cl)cc2)c2noc(=O)n21 (stereo unspecified)", "> 100 µM"),
    ("COc1ccc2c(c1)CC[C@@H]1[C@@H]2CC[C@]2(C)c3[nH]ncc3C[C@@H]12", "> 50 µM"),
    ("COc1ccc2[nH]c3c([N+](=O)[O-])ccc(Cl)c3c(=O)c2c1", "52.1 µM"),
    ("C=CCOc1ccc(C2(c3ccc(OCC=C)cc3)C(=O)Nc3ccccc32)cc1", "> 10 µM"),
    ("CN(C)Cc1cc(C(=O)/C=C/c2ccc(Br)cc2)cc(CN(C)C)c1O", "10.2 µM"),
    ("CCOC(=O)CCSS(=O)(=O)C(F)(F)F", "> 100 µM"),
    ("C=C(C)C(=O)OC1C(C(C)CCCO)=C(CO)CC2OC(=O)C(=C)C21 (stereo unspecified)", "76.6 µM"),
    ("COc1cccc2c1nc1cccc(OC)c1[n+]2[O-]", "37 µM"),
    ("CC(O)CCNC(=O)Nc1c(C(F)(F)F)cc(-c2ccccc2)[nH]c1=O (stereo unspecified)", "> 100 µM"),
    ("Cc1ccc(P(c2ccc(C)cc2)c2ccc(C)cc2)cc1", "> 100 µM"),
    ("Cc1ccc(-c2cn3c(nc4ccccc43)c(-c3ccccc3)n2)cc1", "> 100 µM"),
    ("COCOc1cc(OC)c(Br)cc1C/C(=N/O)C(=O)OC", "> 100 µM"),
    ("COc1ccc(C2=CC(c3ccc(Oc4ccnc5cc(Cl)ccc45)c(OC)c3)c3c(nc(OC)[nH]c3=O)N2)cc1 (stereo unspecified)", "> 100 µM"),
    ("Clc1ccccc1-c1nc(-c2ccncc2)no1", "> 100 µM"),
    ("CCN1/C(=C/C=C/C=C/c2sc3ccccc3[n+]2CC)Sc2ccccc21", "1.39 µM"),
    ("S=c1nc[nH]c2nc[nH]c12", "> 750 µM"),
    ("CCOC(=O)NC(Nc1ccc(F)c(F)c1)(C(=O)OCC)C(F)(F)F (stereo unspecified)", "> 100 µM"),
    ("O=C1N(CN2CCOCC2)CN(CN2CCOCC2)C(=O)N1Cc1ccc(-c2ccc(CN3C(=O)N(CN4CCOCC4)CN(CN4CCOCC4)C3=O)cc2)cc1", "> 79.5 µM"),
    ("CCCCCCCC/C=C\\CCCCCCCC(=O)OC[C@]1(CO)CCC(=O)O1", "> 100 µM"),
    ("COc1cc(/C=C2\\CCCC3C2=Nc2ccccc2NC3c2cc(OC)c(OC)c(OC)c2)cc(OC)c1OC (stereo unspecified)", "> 100 µM"),
    ("CSC1=Nc2c(c(C)c(-c3ccccc3)n2CCCCl)C2=NC(=O)CN12", "> 100 µM"),
    ("CCCCC1C(=O)N(c2ccc(S(=O)(=O)Nc3ccccn3)cc2)N(c2ccc(O)c(C(=O)O)c2)C1=O (stereo unspecified)", "> 100 µM"),
    ("OC(Cc1ccccc1)(Cc1ccccc1)c1ccccc1", "34.4 µM"),
    ("O=C(C[C@@]1(O)C(=O)Nc2c(Cl)ccc(Cl)c21)c1ccc(C2CC2)cc1", "20 µM"),
    ("c1cc2[nH]snc2c2cncc12", "> 100 µM"),
    ("CN(C)/N=C1\\C=C2CC[C@H](O[Si](C)(C)C(C)(C)C)[C@@]2(C)CC1", "28.1 µM"),
]

====

- Tested on: HCT-116 colon
- protocol_details: NCI tumour cell line growth inhibition, 48 h

# molecule, TGI
records = [
    ("CC(C)Oc1c(C2(c3ccccc3O)SCCCS2)c(=O)c1=O", "> 100 µM"),
    ("NC(=S)N/N=C1\\C(=O)N(CCc2ccccc2)C(=O)C1C(=O)NCCc1ccccc1 (stereo unspecified)", "> 100 µM"),
    ("COc1cc(CNc2nc3cc(N)cc(N)c3nc2-c2ccccc2)cc(OC)c1OC", "19.1 µM"),
    ("O=c1oc2ccccc2cc1-c1csc(Nc2cc(Cl)cc(Cl)c2)n1", "> 38.3 µM"),
    ("C[C@@H]1[C@H]2[C@H](C=C3[C@@H]4CC[C@H]5Cc6nc7c(nc6C[C@]5(C)[C@H]4C[C@@H](O)[C@@]32C)C[C@@H]2CC[C@H]3C4=C[C@@H]5O[C@@]6(CC[C@](C)(CO)O6)[C@@H](C)[C@@]5(O)[C@@]4(C)[C@H](O)C[C@@H]3[C@@]2(C)C7)O[C@]12CCC(C)(C)O2", "31.2 µM"),
    ("C=CC[N+]1(CCO)CCN=C1CCCCCCCCCCCCC (stereo unspecified)", "2.69 µM"),
    ("COC(=O)c1ccc(/C=C2\\Cc3ccccc3C2=O)cc1", "> 100 µM"),
    ("Nc1ccc(OCC(O)N2C(=O)c3ccccc3C2=O)cc1 (stereo unspecified)", "> 100 µM"),
    ("O=C(O)CC(C(=O)O)C1c2ccccc2-c2ccccc21 (stereo unspecified)", "> 100 µM"),
    ("CCOC(=O)/C(=C/c1ccccc1)C(=O)c1ccccc1", "4.39 µM"),
    ("C=CC(=O)NCCOc1cccc(Nc2cc(NCCCNC(=O)C3CCC3)c(Br)cn2)c1", "> 25 µM"),
    ("OC1CSCCCSCCSCCCSC1", "> 100 µM"),
    ("O=C1NC(=O)[C@@H](OCC2CCCCC2)[C@@H]2OCC3OC(C(O)C3O)C12 (stereo partly specified)", "> 100 µM"),
    ("Cc1cc(Nc2cc(CN3CCOCC3)c3nc(C)c(Cc4ccc(Cl)cc4F)n3n2)n[nH]1", "2.65 µM"),
    ("O=C1OCC2=C1C(c1cccc(C(F)(F)F)c1)c1cc3c(cc1N2CCO)OCO3 (stereo unspecified)", "> 50 µM"),
    ("CN/C=C(/c1ccc(OC)cc1)C(O)c1ccc(OC)c(OC)c1 (stereo unspecified)", "> 100 µM"),
    ("CC(C)[C@](O)(C(=O)OCC1=CC[N+]2([O-])CC[C@@H](O)[C@@H]12)[C@H](C)O (stereo partly specified)", "> 10000 µM"),
    ("Nc1ccc(-c2ccc(Nc3cc(S(=O)(=O)O)c(N)c4c3C(=O)c3ccccc3C4=O)cc2)c(S(=O)(=O)O)c1", "> 100 µM"),
    ("CC1=C(C(=O)NNC(=O)C(N)=O)CC(C(=O)NNC(=O)C(N)=O)=C(C)N1", "> 100 µM"),
    ("COc1ccc(C2C3=C(COC3=O)OC(C)(C)Oc3cc4c(cc32)OCO4)cc1 (stereo unspecified)", "> 85.4 µM"),
    ("COc1cccc(CCn2c(N)c(C(=O)O)c3ccc([N+](=O)[O-])cc3c2=O)c1", "> 100 µM"),
    ("O=C1N[C@H]2C(=O)c3c(Cl)sc(Cl)c3[C@H]2O1", "8.73 µM"),
    ("COc1nc2c(cc1S(=O)(=O)c1ccccc1)CCc1c-2cnn1Cc1ccccc1", "> 100 µM"),
    ("O=C1c2ccc3c4c(ccc(c24)C(=O)N1CCCNCc1ccccc1)C(=O)N(CCCNCc1ccccc1)C3=O", "0.39 µM"),
    ("COc1ccc2[nH]c(-c3ccccc3)c(C=C(C#N)C#N)c2c1", "> 100 µM"),
    ("C[N+]1(C)CCOC(O)(c2ccccc2)C1 (stereo unspecified)", "> 100 µM"),
]

Just for reference, PubChem BioAssay (NCI) is where these values come from.
